Hello, the source for this data is paper PMC7848789, in case you need it.

targetSystem: Recombinant human HDAC1 enzyme (Homo sapiens, UniProt Q13547)
Sequence (Q13547 whole entry): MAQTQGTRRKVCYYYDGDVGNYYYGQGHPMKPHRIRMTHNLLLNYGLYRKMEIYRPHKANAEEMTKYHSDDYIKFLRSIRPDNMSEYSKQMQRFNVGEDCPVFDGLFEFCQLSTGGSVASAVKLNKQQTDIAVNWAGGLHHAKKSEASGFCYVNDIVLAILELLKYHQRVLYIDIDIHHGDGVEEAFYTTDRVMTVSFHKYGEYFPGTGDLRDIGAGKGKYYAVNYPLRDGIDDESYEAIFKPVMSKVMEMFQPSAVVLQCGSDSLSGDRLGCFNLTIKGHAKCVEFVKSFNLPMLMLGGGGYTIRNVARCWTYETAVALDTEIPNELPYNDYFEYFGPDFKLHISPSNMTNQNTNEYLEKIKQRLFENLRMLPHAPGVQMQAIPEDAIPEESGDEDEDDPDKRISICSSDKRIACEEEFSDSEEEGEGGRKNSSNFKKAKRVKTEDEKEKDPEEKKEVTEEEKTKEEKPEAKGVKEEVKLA
protocolText: HDAC-Glo I/II enzymatic assay
Assay type: biochemical
conditionLabel: read-out: % Efficacy, HDAC-Glo: HDAC1
Give Emax for every item shown.
Reply numerically in %, unit not repeated.

Record summary for Oc1ccc(/C=C/c2cc(O)cc(O)c2)cc1 [Resveratrol] : reported Emax = 95

Entry CC(=O)Oc1ccccc1C(=O)Nc1ncc([N+](=O)[O-])s1 [Nitazoxanide] ; Emax = 95

compound N=C(N)c1ccc2cc(OC(=O)c3ccc(N=C(N)N)cc3)ccc2c1 [Nafamostat] , Emax observed: 97

// field: Emax; key: c1ccc2[nH]c(-c3cscn3)nc2c1 [Thiabendazole] ; value = 90

// CN(C)C(=O)COC(=O)Cc1ccc(OC(=O)c2ccc(NC(=N)N)cc2)cc1 [Camostat] : Emax value = 95

Please fill in: Emax reported for O=C(Nc1ccc([N+](=O)[O-])cc1Cl)c1cc(Cl)ccc1O [Niclosamide] = 99

Measured Emax, Cc1oncc1C(=O)Nc1ccc(C(F)(F)F)cc1 [Leflunomide] : 96

Looking up Nc1ccc2c(c1)CN1C(=O)c3ccccc3C1=N2 [Daniquidone] , I see its Emax listed as 92

Lab note: measured Emax of O=S(=O)(O)c1ccc2[nH]c(-c3ccccc3)nc2c1 [Ensulizole] was 99

Given item CNC(=O)c1ccccc1Sc1ccc2c(/C=C/c3ccccn3)n[nH]c2c1 [Axitinib] , the value recorded as its Emax is 90

Data point: O=C(Nc1ncc([N+](=O)[O-])s1)c1cccs1 [Tenonitrozole] ; Emax = 93

get_value(item= CCCSc1ccc2nc(NC(=O)OC)[nH]c2c1 [Albendazole] , readout=Emax) returns 93

====

targetSystem: HDAC1–86b (Homo sapiens, UniProt Q13547)
protocolText: HDAC1-86b SplitLuc CETSA in HEK293T cells
Type: binding
conditionLabel: 49°C, active = CRC class 1 and 2 and AUC>50
Where a SMILES comes first, the peptide text is derived from it.
reportedMetric: Activity outcome in SplitLuc CETSA (thermal stabilization of HDAC1–86b)

CCC(=O)CCCCC[C@@H]1NC(=O)[C@H]2CCCCN2C(=O)[C@H]([C@@H](C)CC)NC(=O)[C@H](Cc2cn(OC)c3ccccc23)NC1=O; most potent
COc1ccc(-c2nc(N3CCOCC3)c3sc(CN(C)c4ncc(C(=O)NO)cn4)cc3n2)cn1; most potent
O=C(CCCCC[C@@H]1NC(=O)[C@H]2CCCCN2C(=O)[C@H](Cc2ccccc2)NC(=O)[C@H](Cc2ccccc2)NC1=O)C1CO1 (some centres unmarked) [Trapoxin A] (HELM PEPTIDE1{F.F.[O=C([C@H]1CCCCN1[*:1])[*:2]].[O=C(CCCCC[C@H](N[*:1])C(=O)[*:2])C1CO1]}$PEPTIDE1,PEPTIDE1,1:R1-4:R2$$$V2.0); most potent
Cn1cc(CNCC2CCN(c3ncc(C(=O)NO)cn3)CC2)c2ccccc21; most potent

====

targetSystem: Recombinant human HDAC1 enzyme (Homo sapiens)
protocolText: HDAC-Glo I/II enzymatic assay
Type: biochemical
conditionLabel: read-out: IC50 in the enzymatic assay (HDAC1); HDAC-Glo I/II, Epigenetic-Focused collection
reportedMetric: IC50 (nM)
Lab book: enter the figure in nM, no units written.

# IC50 (compound: C=C1CN(Cc2ccc(C(=O)Nc3ccccc3N)cc2)C(=O)c2ccccc21 ) is 80
